# test target: cPAH (phenylalanine hydroxylase from Chromobacterium violaceum) (Chromobacterium violaceum, UniProt P30967, Y155A)
# test method notes: biochemical
reported endpoint: pKd
The meaning of pKd here: minus log10 of the concentration in molar units.

I have this compound here, C[C@H](O)[C@H](O)[C@H]1CNc2nc(N)[nH]c(=O)c2N1 , and I need its recorded pKd.
4.79

* * *

# test target: cPAH (phenylalanine hydroxylase from Chromobacterium violaceum) (Chromobacterium violaceum, UniProt P30967)
# test method notes: ITC, one-site model
# Type: binding
reported endpoint: Kd (µM)
Provide the reading as a plain figure in µM.

I have this compound here, N[C@@H](Cc1ccccc1)C(=O)O , and I need its recorded Kd.
24
